Molecular target: partially purified telomerase from a nuclear extract of HEK293 cells (Homo sapiens, UniProt O14746)
Construct: partially purified telomerase from a nuclear extract of HEK293 cells; endogenous in cells; host or cells: HEK293 cells, nuclear extract, partially purified
Sequence (O14746 whole entry): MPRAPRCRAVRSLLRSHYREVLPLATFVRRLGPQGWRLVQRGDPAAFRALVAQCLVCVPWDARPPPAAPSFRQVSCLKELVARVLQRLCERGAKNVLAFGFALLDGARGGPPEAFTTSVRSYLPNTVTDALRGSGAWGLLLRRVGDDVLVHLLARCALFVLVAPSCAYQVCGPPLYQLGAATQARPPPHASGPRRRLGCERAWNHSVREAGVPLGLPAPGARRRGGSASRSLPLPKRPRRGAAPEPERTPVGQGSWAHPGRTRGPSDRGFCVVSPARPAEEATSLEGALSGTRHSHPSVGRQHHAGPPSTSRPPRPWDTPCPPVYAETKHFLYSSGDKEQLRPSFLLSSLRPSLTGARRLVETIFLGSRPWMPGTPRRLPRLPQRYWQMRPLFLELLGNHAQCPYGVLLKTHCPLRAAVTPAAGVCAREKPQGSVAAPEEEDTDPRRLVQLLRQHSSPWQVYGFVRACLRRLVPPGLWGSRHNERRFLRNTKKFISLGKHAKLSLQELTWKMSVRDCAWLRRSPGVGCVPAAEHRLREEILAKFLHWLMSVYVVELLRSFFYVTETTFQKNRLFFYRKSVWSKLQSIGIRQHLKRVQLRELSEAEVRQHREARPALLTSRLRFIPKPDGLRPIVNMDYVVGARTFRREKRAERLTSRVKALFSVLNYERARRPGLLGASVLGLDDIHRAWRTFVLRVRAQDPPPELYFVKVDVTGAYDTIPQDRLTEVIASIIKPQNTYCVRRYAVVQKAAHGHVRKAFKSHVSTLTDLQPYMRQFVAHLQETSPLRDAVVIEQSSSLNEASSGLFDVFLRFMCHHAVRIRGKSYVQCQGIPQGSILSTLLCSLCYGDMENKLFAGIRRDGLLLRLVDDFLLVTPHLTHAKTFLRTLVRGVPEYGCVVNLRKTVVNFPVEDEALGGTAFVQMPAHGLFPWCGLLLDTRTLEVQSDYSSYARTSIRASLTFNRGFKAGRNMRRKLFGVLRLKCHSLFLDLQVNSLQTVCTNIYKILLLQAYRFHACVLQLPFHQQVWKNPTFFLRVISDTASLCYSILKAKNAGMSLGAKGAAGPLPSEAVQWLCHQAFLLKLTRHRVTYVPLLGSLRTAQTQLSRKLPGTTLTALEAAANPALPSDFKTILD
Sequence (O60832 whole entry partner): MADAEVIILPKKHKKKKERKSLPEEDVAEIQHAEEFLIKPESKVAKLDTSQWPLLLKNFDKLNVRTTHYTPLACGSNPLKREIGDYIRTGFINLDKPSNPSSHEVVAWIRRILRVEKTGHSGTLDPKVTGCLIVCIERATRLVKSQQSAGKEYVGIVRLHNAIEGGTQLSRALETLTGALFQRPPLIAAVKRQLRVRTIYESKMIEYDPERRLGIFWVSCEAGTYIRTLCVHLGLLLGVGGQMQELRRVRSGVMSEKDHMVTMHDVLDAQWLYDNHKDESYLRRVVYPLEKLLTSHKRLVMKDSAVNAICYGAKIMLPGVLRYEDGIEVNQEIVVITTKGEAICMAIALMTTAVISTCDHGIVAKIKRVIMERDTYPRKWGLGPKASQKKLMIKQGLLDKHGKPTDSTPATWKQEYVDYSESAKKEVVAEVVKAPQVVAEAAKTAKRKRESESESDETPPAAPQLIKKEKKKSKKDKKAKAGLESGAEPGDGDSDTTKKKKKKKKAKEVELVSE
Sequence (Q9NPE3 whole entry partner): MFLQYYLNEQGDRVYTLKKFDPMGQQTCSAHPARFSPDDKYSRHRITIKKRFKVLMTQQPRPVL
Sequence (Q9NX24 whole entry partner): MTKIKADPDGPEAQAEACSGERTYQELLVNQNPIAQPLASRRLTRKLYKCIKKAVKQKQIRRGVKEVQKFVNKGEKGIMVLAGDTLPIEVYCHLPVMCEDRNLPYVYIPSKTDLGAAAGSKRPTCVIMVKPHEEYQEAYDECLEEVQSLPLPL
Sequence (Q9NY12 whole entry partner): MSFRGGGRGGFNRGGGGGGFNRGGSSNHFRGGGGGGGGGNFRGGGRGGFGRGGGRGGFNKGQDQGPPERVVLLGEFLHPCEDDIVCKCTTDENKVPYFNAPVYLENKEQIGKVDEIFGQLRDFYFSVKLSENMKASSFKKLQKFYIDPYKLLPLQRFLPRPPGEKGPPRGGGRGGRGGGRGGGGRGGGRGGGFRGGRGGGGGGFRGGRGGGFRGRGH
Experiment: In vitro telomerase inhibition, membrane hybridization method (U.S. Pat. No. 5,760,062)
Assay type: biochemical
Conditions: partially purified telomerase from nuclear extract of HEK293 cells
Protocol: Alternatively, telomerase inhibitory activity of the compounds was measured in accordance with a known method (U.S. Pat. No. 5,760,062). […] The inhibition ratio was calculated based on the ratio of the signal of label on the membrane in the presence of the agent to the signal of label in the absence of the agent (control). […]
readout name: IC50 (µM)

In [3]: df
Out[3]:
                                   compound  measurement_unit  val
0  Cc1ccc(COc2ccc(Br)cc2C=C2SC(=O)NC2=O)cc1 [Compound 25]                µM  4.2
1  Cc1ccc([S+]([O-])c2ccc([N+](=O)[O-])cc2C=C2SC(=O)NC2=O)cc1 (centres unmarked) [Compound 4]                µM   30
2  O=C1NC(=O)C(=Cc2ccc(N(Cc3ccccc3)Cc3ccccc3)cc2)S1 [Compound 36]                µM  5.1

1: O=C1NC(=O)C(=Cc2cc([N+](=O)[O-])ccc2Sc2ccc(Cl)c(Cl)c2)S1 [Compound 72]
2: Cc1ccc(Sc2ccc([N+](=O)[O-])cc2C=C2SC(=O)NC2=O)cc1 [Compound 1]
3: CCCN(CCC)c1ccc([N+](=O)[O-])cc1C=C1SC(=O)NC1=O [Compound 123]
4: O=C1NC(=O)C(=Cc2cc([N+](=O)[O-])ccc2S(=O)(=O)c2ccc(Cl)cc2)S1 [Compound 69]
Q: Returns the items ordered by IC50, from maximum to minimum. Hello, could you send the labels back in the order asked? Thank you.
A: 2, 3, 1, 4
(2: 21 µM, 3: 6.9 µM, 1: 4.3 µM, 4: 0.48 µM)

1: COc1ccc(Sc2ccc([N+](=O)[O-])cc2C=C2SC(=O)NC2=O)cc1 [Compound 74]
2: O=C1NC(=O)C(=Cc2ccc(Cc3ccccc3)cc2)S1 [Compound 32]
3: Cc1ccc(Sc2ccc(C=C3SC(=O)NC3=O)cc2Oc2ccccc2)cc1 [Compound 137]
4: CCc1ccc(CCOc2ccc(CC3SC(=O)NC3=O)cc2)nc1 (centres unmarked) [Pioglitazone, pioglitazone, reference compound]
5: O=C1NC(=O)C(=Cc2cc([N+](=O)[O-])ccc2OCc2ccc(Cl)c(Cl)c2)S1 [Compound 17]
Q: // smallest IC50 at index 0, largest at the end Hello, could you send the labels back in the order asked? Thank you.
A: 1, 3, 5, 2, 4
(1: 3.7 µM, 3: 5.5 µM, 5: 10 µM, 2: 21 µM, 4: 83 µM)

I: O=C1NC(=S)SC1=Cc1cc([N+](=O)[O-])ccc1Sc1ccc(Cl)cc1 [Compound 37]
II: Cc1ccc(COc2ccc([N+](=O)[O-])cc2C=C2SC(=O)NC2=O)cc1 [Compound 18]
Q: Lab note: check whether I or II has the lower measured IC50. Please indicate the selected item by its label.
A: I
(I: 6 µM, II: 11 µM)

I: O=C1NC(=O)C(=Cc2cc(Br)c(Sc3ccc(Cl)cc3)s2)S1 [Compound 63]
II: Cc1ccc(Sc2ccc(C(=O)OCc3ccccc3)cc2C=C2SC(=O)NC2=O)cc1 [Compound 139]
Q: Of the two listed items, I and II , which carries the larger IC50 figure? Please indicate the selected item by its label.
A: I
